// data source = the supplement of paper PMC9170038

system: MS2 coat protein; test: apparent KD of MS2 coat protein; designed switch direction (-1 OFF switch, 1 ON switch): -1; higher = weaker reporter binding; settings: Eterna round: R95; input ligand: none
Catalogue of sequences with associated apparent KD of MS2 coat protein
Dear colleague, please return just the value in nM, with no unit written.

* ACAACAAGCUUUUUGUUCGUAGAACAUGAUGCUCUAGUCACAUGAGGAUCACCCAUGUCAACCAGAUAGAUAGUUGA [JR_SV3TOV2_Sub063] (puzzle: Sensor v3, turn-off variant 2) | 50.4

INPUT: Query: apparent KD of MS2 coat protein; subject: AGUACUGACACGUUGGUGUUAGUACAAUAAGCUUGUGUUACAUGAGGAUCACCCAUGUCCUCAUAAGCUCGUCUUAU [salish99_TOv2_r2_095] (puzzle: Sensor v3, turn-off variant 2)
OUTPUT: 138

INPUT: What about this sequence? AAACUCCCAACCACCGGGAACAUGAGGAUCACCCAUGUGGCGUGACUCAUACGGGCUUUUUGUUCGUUUUAUUCACG [Soesesqu] (puzzle: Sensor v3, turn-off variant 1)
OUTPUT: 72.5

INPUT: Record: AGUUACUACAAGCUUUGGGACAUGAGGAUCACCCAUGUUCGUCUUAUUGUAGUAGGUACGCUGACGUACCUACUACU [Mat - Sensor v3 - turn-off var 1 - JL Mod - D6] (puzzle: Sensor v3, turn-off variant 1)
OUTPUT: 14.5

* * *

test system: MS2 coat protein; assay: apparent KD of MS2 coat protein; designed switch direction (-1 OFF switch, 1 ON switch): -1; higher = weaker reporter binding; details: input ligand: none
Reported Endpoint: apparent KD of MS2 coat protein (nM)
Reply with just the number (in nM).

• UGAGACUGAGGAUAUACUAGCCCAUAAAGUGGGUAGUGGGUACAUGAGGAUCACCCAUGUAGAAGGCAGCCUCG [Omei Repeat Sequence v2] (Eterna round: R97, puzzle: Exclusion 2) = 29.4
• CCAUAUAGGCGAGGAUAUACGCACCACUAACUAGUAGAAGGCGCACAUGAGGAUCACCCAUGUGAUUUCUCAAUAUUAUACAUC [Prohibition 72 - Jieux - Exclusion NG 1] (Eterna round: R96, puzzle: Exclusion NG 1) = 157
• AGAGUACUGCGAGGAUAUACAUGAGGAUCACCCAUGUAAUAGUGUGAGGCUUUGCCUCACACAAUGUAGAAGGCGCAGUACUCA [Mat - Exclusion NG 2 - Mod of JL - D6] (Eterna round: R96, puzzle: Exclusion NG 2) = 17.8

INPUT: Tell me the measured apparent KD of MS2 coat protein of ACAUGAGGAUCACCCAUGUAAACAUAAUGGCUCAUGUAGAGUCAGGAUAUGCGUGGCGAACAAGCGCAGAAGGGACAAGACUGG [Deportation 25 - Jieux - Exclusion NG 3] (Eterna round: R96, puzzle: Exclusion NG 3) , please.
OUTPUT: 27.2

INPUT: Now consider UCGAUGUAAGGAUAUCGUGCAAGUUUCAAAAGAGGCUUGUGCGAGAAGGUACAUGAGGAUCACCCAUGUAGGUU [Omei Ex4 B7] (Eterna round: R97, puzzle: Exclusion 4) and answer again.
OUTPUT: 75.6

INPUT: Cool, now UGAGUGCUGCGAGGAUAUACAUGAGGAUCACCCAUGUGGAUGUCUGAGGCUUUGCCUCAGACAAUGUAGAAGGCGCAGUACUCU [JL ENG2 1.21] (Eterna round: R96, puzzle: Exclusion NG 2)
OUTPUT: 21
